# assay-system: calmodulin-IQSEC2 interaction
# assay-notes: Binding of luciferase-IQSEC2 to calmodulin-sepharose in vitro
# Design: species or system human
# experimental-conditions: wild type IQSEC2, 0.1% Triton X-100; read-out: Free calcium concentration for half-maximal binding of calcium-calmodulin to IQSEC2
pEC50: −log10 of the molar value.
readout-type: pEC50

> print(dat)
      smi  readout.type  value.measured
1  [Ca+2]         pEC50           ~6.00

====

# assay-system: calmodulin-IQSEC2 interaction
# assay-notes: Binding of luciferase-IQSEC2 to calmodulin-sepharose in vitro
# Set-up: species or system human
# experimental-conditions: A350V IQSEC2, 0.1% Triton X-100; read-out: Free calcium concentration for half-maximal binding of calcium-calmodulin to IQSEC2
readout-type: EC50

> print(dat)
      smi  value.measured
1  [Ca+2]           ~1 µM
